Hello, the source for this data is paper PMC5515408, in case you need it.

Recorded binding signal for the following sequences
- system_tested: MYC (p64);MAX (p21), in MYC:MAX (human;human, UniProt P01106-1;P61244-2 1-439;1-151, |)
- Sequence (P01106 16-454, chain 1 of 2): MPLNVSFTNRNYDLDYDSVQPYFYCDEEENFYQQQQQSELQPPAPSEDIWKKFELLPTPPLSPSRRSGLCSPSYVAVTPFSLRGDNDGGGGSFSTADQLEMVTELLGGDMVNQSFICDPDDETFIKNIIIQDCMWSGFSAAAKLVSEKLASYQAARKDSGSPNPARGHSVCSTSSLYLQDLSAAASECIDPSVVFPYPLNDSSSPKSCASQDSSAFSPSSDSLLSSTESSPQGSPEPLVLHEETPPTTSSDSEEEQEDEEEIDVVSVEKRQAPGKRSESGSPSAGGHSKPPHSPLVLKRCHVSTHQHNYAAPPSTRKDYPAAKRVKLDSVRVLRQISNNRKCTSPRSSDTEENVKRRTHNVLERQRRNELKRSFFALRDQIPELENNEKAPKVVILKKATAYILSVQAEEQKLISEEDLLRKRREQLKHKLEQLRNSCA
- Sequence (P61244 other isoform, or with tags, fused parts or gaps |, chain 2 of 2): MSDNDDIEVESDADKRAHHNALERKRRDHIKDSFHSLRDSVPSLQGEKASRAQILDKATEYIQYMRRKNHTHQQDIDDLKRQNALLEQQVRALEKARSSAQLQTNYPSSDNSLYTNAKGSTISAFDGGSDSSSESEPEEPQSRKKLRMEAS
- measurement_notes: protein-binding microarray (anti-MAX antibody); PBM: 15 mM Tris-HCl pH 7.5, 100 mM KCl, 0.075% NP40, 7.5 mM beta-mercaptoethanol, 375 ng/ul BSA, 8 ng/ul poly(dA-dT):(dA-dT), 550 ng complex, 60 min, room tempe; high values mean tight binding
- applied_conditions: protein: recombinant;recombinant; tags: 6xHis;6xHis; copies: 1;1; label: 3' end of printed strand (linker) attached to glass slide; dsDNA, one strand shown
The full ranking holds about 5,000 sequences; the median of “log2 normalized fluorescence” is about 0.089, and the highest 2% start at about 0.81. For the sample, the highest values were picked, then their nearest neighbours and some sequences at random.

Check out these entries, answers already filled in.
CCGGCCGACACGCGGTTTTAATAGCTAAGATTACTATATCGACG; 0.82 log2 normalized fluorescence
CCGGCTGACACGTCATGTTAATAGCTAAGATTACTATATCGACG; 0.5 log2 normalized fluorescence

Request: # get_value(readout='binding signal', item= `CCGGCTGAGTGTTAGTATTAATAGCTAAGATTACTATATCGACG` )
Response: 0.177 log2 normalized fluorescence

Request: # lookup: binding signal of `CCGGCTGACACGTGATCTTAATAGCTAAGATTACTATATCGACG`
Response: 0.744 log2 normalized fluorescence

Request: Quick check: binding signal of `CCGGCTGACCTCTGGTATTAATAGCTAAGATTACTATATCGACG` ?
Response: -0.0273 log2 normalized fluorescence

* * *

- system_tested: MYC (p64);MAX (p21), in MYC:MAX (human;human, UniProt P01106-1;P61244-2 1-439;1-151, |)
- measurement_notes: protein-binding microarray (anti-MAX antibody); PBM: 15 mM Tris-HCl pH 7.5, 100 mM KCl, 0.075% NP40, 7.5 mM beta-mercaptoethanol, 375 ng/ul BSA, 8 ng/ul poly(dA-dT):(dA-dT), 550 ng complex, 60 min, room tempe; high values mean tight binding
- applied_conditions: protein: recombinant;recombinant; tags: 6xHis;6xHis; copies: 1;1; label: 3' end of printed strand (linker) attached to glass slide; dsDNA, one strand shown
Over roughly 5,000 sequences, “log2 normalized fluorescence” has its median near 0.089; the highest 2% begin near 0.81. This is one part of a sample in which the highest values are shown more often than they occur.
Here the recorded binding signal is given for each entry.

# annotated cases, reported binding signal shown
CCGGCTGAATAATTGTATTAATAGCTAAGATTACTATATCGACG; -0.0392 log2 normalized fluorescence
CCGGCTGACACGTGTAATTAATAGCTAAGATTACTATATCGACG; 0.708 log2 normalized fluorescence
CCGGCTGATGATGCGTATTAATAGCTAAGATTACTATATCGACG; 0.112 log2 normalized fluorescence
CCGGCTGACACGTTAGATTAATAGCTAAGATTACTATATCGACG; 0.482 log2 normalized fluorescence
CCGGCTGACACGTGAACTTAATAGCTAAGATTACTATATCGACG; 0.796 log2 normalized fluorescence

Request: I am curious: what binding signal value has been reported for `CCGGCTGATGGGCAGTATTAATAGCTAAGATTACTATATCGACG` ?
Response: 0.0215 log2 normalized fluorescence

Request: Recorded binding signal of `CCGGCTGAACCAACGTATTAATAGCTAAGATTACTATATCGACG` , please.
Response: 0.302 log2 normalized fluorescence

Request: Query: binding signal; subject: `CCGGCCGACACATGGTTTTAATAGCTAAGATTACTATATCGACG`
Response: 0.635 log2 normalized fluorescence

Request: I would be grateful if you could share the reported binding signal for `CCGGCTGACATGTGGTTTTAATAGCTAAGATTACTATATCGACG` .
Response: 0.359 log2 normalized fluorescence

Request: Which binding signal is listed for `CCGGCTGAATACCTGTATTAATAGCTAAGATTACTATATCGACG` ?
Response: 0.159 log2 normalized fluorescence

Request: Field request: binding signal | item: `CCGGCTGACACGTGTTATTAATAGCTAAGATTACTATATCGACG`
Response: 0.722 log2 normalized fluorescence

* * *

List of binding signal values.
- system_tested: MYC (p64);MAX (p21), in MYC:MAX (human;human, UniProt P01106-1;P61244-2 1-439;1-151, |)
- measurement_notes: protein-binding microarray (anti-MAX antibody); PBM: 15 mM Tris-HCl pH 7.5, 100 mM KCl, 0.075% NP40, 7.5 mM beta-mercaptoethanol, 375 ng/ul BSA, 8 ng/ul poly(dA-dT):(dA-dT), 550 ng complex, 60 min, room tempe; high values mean tight binding
- applied_conditions: protein: recombinant;recombinant; tags: 6xHis;6xHis; copies: 1;1; label: 3' end of printed strand (linker) attached to glass slide; dsDNA, one strand shown
Over roughly 5,000 sequences, “log2 normalized fluorescence” has its median near 0.089; the highest 2% begin near 0.81. For the sample, the highest values were picked, then their nearest neighbours and some sequences at random.

CCGGCTGCCATGTGGGATTAATAGCTAAGATTACTATATCGACG; 0.899 log2 normalized fluorescence
CCGGCTGAGTACCTGTATTAATAGCTAAGATTACTATATCGACG; 0.076 log2 normalized fluorescence
CCGGCTGAACATACGTATTAATAGCTAAGATTACTATATCGACG; 0.202 log2 normalized fluorescence

Lab note: next sequence to report on.
Request: Item `CCGGCTGCCATGTGGTTTTAATAGCTAAGATTACTATATCGACG` has what recorded binding signal?
Response: 0.633 log2 normalized fluorescence

* * *

Recorded binding signal, one value per entry.
- system_tested: MYC (p64);MAX (p21), in MYC:MAX (human;human, UniProt P01106-1;P61244-2 1-439;1-151, |)
- measurement_notes: protein-binding microarray (anti-MAX antibody); PBM: 15 mM Tris-HCl pH 7.5, 100 mM KCl, 0.075% NP40, 7.5 mM beta-mercaptoethanol, 375 ng/ul BSA, 8 ng/ul poly(dA-dT):(dA-dT), 550 ng complex, 60 min, room tempe; high values mean tight binding
- applied_conditions: protein: recombinant;recombinant; tags: 6xHis;6xHis; copies: 1;1; label: 3' end of printed strand (linker) attached to glass slide; dsDNA, one strand shown
Whole data set: some 5,000 sequences, median “log2 normalized fluorescence” near 0.089, cut for the highest 2% near 0.81. The list comes from a sample in which the highest values are over-represented; it also holds close analogues and randomly drawn sequences.

Worked examples follow.
CCGGCTGAAGGGGGGTATTAATAGCTAAGATTACTATATCGACG; 0.855 log2 normalized fluorescence
CCGGCTGAGGGGAGGTATTAATAGCTAAGATTACTATATCGACG; 0.438 log2 normalized fluorescence
CCGGCTGACGTGTGGTATTAATAGCTAAGATTACTATATCGACG; 0.252 log2 normalized fluorescence

Request: Name the recorded binding signal for `CCGGCTGAACAAGTGTATTAATAGCTAAGATTACTATATCGACG` .
Response: 0.224 log2 normalized fluorescence

Request: Which value of binding signal has been reported for `CCGGCTGAACACACGTATTAATAGCTAAGATTACTATATCGACG` in the records?
Response: 0.419 log2 normalized fluorescence

Request: Given the entry `CCGGCCGACACGTTGTATTAATAGCTAAGATTACTATATCGACG` , report its measured binding signal.
Response: 0.656 log2 normalized fluorescence

Request: Give the measured binding signal of `CCGGCTGACACGTGGGCTTAATAGCTAAGATTACTATATCGACG` .
Response: 0.74 log2 normalized fluorescence

Request: I would be grateful if you could share the reported binding signal for `CCGGCTGAGGGGGAGTATTAATAGCTAAGATTACTATATCGACG` .
Response: 0.823 log2 normalized fluorescence

Request: Which value of binding signal has been reported for `CCGGCTGAAAAAGGGTATTAATAGCTAAGATTACTATATCGACG` in the records?
Response: -0.0246 log2 normalized fluorescence

Request: Quick one: binding signal for `CCGGCTGAAGGGTGGTATTAATAGCTAAGATTACTATATCGACG` ?
Response: 0.18 log2 normalized fluorescence

Request: Give the measured binding signal of `CCGGCTGAAAGGGGGTATTAATAGCTAAGATTACTATATCGACG` .
Response: 0.83 log2 normalized fluorescence

* * *

- system_tested: MYC (p64);MAX (p21), in MYC:MAX (human;human, UniProt P01106-1;P61244-2 1-439;1-151, |)
- measurement_notes: protein-binding microarray (anti-MAX antibody); PBM: 15 mM Tris-HCl pH 7.5, 100 mM KCl, 0.075% NP40, 7.5 mM beta-mercaptoethanol, 375 ng/ul BSA, 8 ng/ul poly(dA-dT):(dA-dT), 550 ng complex, 60 min, room tempe; high values mean tight binding
- applied_conditions: protein: recombinant;recombinant; tags: 6xHis;6xHis; copies: 1;1; label: 3' end of printed strand (linker) attached to glass slide; dsDNA, one strand shown
In all, about 5,000 sequences were measured (“log2 normalized fluorescence”: median about 0.089, highest 2% from about 0.81 on). Many of the other results were omitted from the sample, so the highest values are more common in it than they were.
property_name: binding signal

CCGGCTGAGTTCCCGTATTAATAGCTAAGATTACTATATCGACG; 0.0824 log2 normalized fluorescence
CCGGCTGACACGTGGTGTTAATAGCTAAGATTACTATATCGACG; 0.534 log2 normalized fluorescence
CCGGCTGAAAAGCGGTATTAATAGCTAAGATTACTATATCGACG; 0.0993 log2 normalized fluorescence
CCGGCTGACCTGACGTATTAATAGCTAAGATTACTATATCGACG; 0.202 log2 normalized fluorescence

Request: Record request: binding signal value, item `CCGGCATGCACGTGGTATTAATAGCTAAGATTACTATATCGACG`
Response: 0.877 log2 normalized fluorescence
